Test: Solubility in PBS
Type: physicochemical
Solubility for assorted compounds
# answer = value followed by unit

Example cases with answers are listed next.
1) CC(=O)N1CCC[C@]12CC=CCCCC1(CCCC=CCCCCCC[C@@](C)(C(=O)N[C@@H](Cc3ccccc3)C(=O)N[C@@H](Cc3c[nH]c4ccccc34)C(=O)N[C@@H](CCC(N)=O)C(N)=O)NC(=O)[C@H](C(C)C)NC(=O)[C@H](Cc3cn(C)cn3)NC(=O)[C@H](C)NC(=O)[C@H](C)NC(=O)[C@H](CC(=O)O)NC(=O)[C@H](CC(=O)O)NC1=O)NC(=O)[C@H](C)NC(=O)[C@H](CC(=O)O)NC2=O (some centres unmarked) [I-329] ... 41 µM
2) CCN(CC(=O)O)C[C@@H]1NC(=O)[C@H](CC(=O)O)NC(=O)C2(CCCC=CCCCOC(=O)N3CC[C@@](C(=O)N[C@@H](Cc4ccsc4)C(=O)N[C@@H](Cc4csc5ccccc45)C(=O)N[C@@H](CCC(N)=O)C(N)=O)(C3)NC(=O)[C@H](CC(N)=O)NC(=O)[C@H](Cc3ccccc3)NC(=O)[C@H](C)NC(=O)[C@H](C)NC1=O)CCCC=CC[C@]1(CCCN1C(C)=O)C(=O)N[C@@H](CC(=O)O)C(=O)N[C@@H](CC(C)(C)C)C(=O)N2 (some centres unmarked) [I-964] ... 46 µM
3) CC[C@H](C)[C@@H]1NC(=O)[C@H](CC(=O)O)NC(=O)[C@]2(CC=CCCCC3(CCCC=CCCCCCC[C@@](C)(C(=O)N[C@@H](Cc4ccccc4)C(=O)N[C@@H](Cc4csc5ccccc45)C(=O)N[C@@H](CCC(N)=O)C(N)=O)NC(=O)[C@H](CCC(N)=O)NC(=O)[C@H](Cc4ccccc4)NC(=O)[C@H](C)NC(=O)[C@H](C)NC(=O)[C@H](CCCNC(=N)N)NC(=O)[C@H](CC(=O)O)NC3=O)NC1=O)CCCN2C(C)=O (some centres unmarked) [I-613] ... 10 µM
4) CC(=O)N1CCC[C@]12CC=CCCCC1(CCCC=CCCCCCC[C@@](C)(C(=O)N[C@@H](Cc3ccccc3)C(=O)N[C@@H](Cc3c[nH]c4ccccc34)C(=O)N[C@@H](CCC(N)=O)C(N)=O)NC(=O)[C@H](C(C)C)NC(=O)[C@H](Cc3ccccc3)NC(=O)[C@H](C)NC(=O)[C@H](C)NC(=O)[C@H](C)NC(=O)[C@H](CC(=O)O)NC1=O)NC(=O)[C@H](C)NC(=O)[C@H](CC(=O)O)NC2=O (some centres unmarked) ... 10 µM

Let us move to another entry and its Solubility.
Input line: Query: Solubility; subject: CC[C@H](C)[C@@H]1NC(=O)[C@H](CC(=O)O)NC(=O)[C@]2(CC=CCCCC3(CCCC=CCCCCCC[C@@](C)(C(=O)N[C@@H](Cc4ccccc4)C(=O)N[C@@H](Cc4csc5ccccc45)C(=O)N[C@@H](CCC(N)=O)C(N)=O)NC(=O)[C@H](CCC(N)=O)NC(=O)[C@H](Cc4ccccc4)NC(=O)[C@H](C)NC(=O)[C@H](C)NC(=O)[C@H](CCC(=O)O)NC(=O)[C@H](CC(=O)O)NC3=O)NC1=O)CCCN2C(=O)Cc1ccccc1 (some centres unmarked) [I-600]
Output line: 47 µM
